- Assay system: Neurotensin receptor type 1 (Homo sapiens)
- Experiment summary: Agonist activity at NTSR1 (unknown origin) expressed in CHO cells assessed as potentiation of NT(8-13) peptide-induced change in intracellular Ca2+ level preincubated for 45 mins by FLIPR assay
- Format: functional, cell-based
What EC50 was measured for each of the following?
Answers are plain numbers, in µM.

Consider the following illustrative entries.
[
  {
    "Entry smiles": "CC(C)C[C@H](NC(=O)Cn1ccc2cc(-c3cccc4cnccc34)ccc21)C(=O)O",
    "Measurement units": "µM",
    "Numeric value": 4.96
  },
  {
    "Entry smiles": "CC(C)C[C@H](NC(=O)Cn1ccc2cc(NS(=O)(=O)c3cccc4cccnc34)ccc21)C(=O)O",
    "Measurement units": "µM",
    "Numeric value": 8.99
  },
  {
    "Entry smiles": "COc1cccc(CC(=O)Nc2ccc3c(ccn3CC(=O)N[C@@H](CC(C)C)C(=O)O)c2)c1",
    "Measurement units": "µM",
    "Numeric value": 24.2
  }
]

Lookup result for CC(C)C[C@H](NC(=O)Cn1ccc2cc(NC(=O)c3ccnc4ccccc34)ccc21)C(=O)O ; measured EC50: 55.1

----------
- Assay system: Neurotensin receptor type 1 (Homo sapiens, UniProt P30989)
- Sequence (P30989 whole entry): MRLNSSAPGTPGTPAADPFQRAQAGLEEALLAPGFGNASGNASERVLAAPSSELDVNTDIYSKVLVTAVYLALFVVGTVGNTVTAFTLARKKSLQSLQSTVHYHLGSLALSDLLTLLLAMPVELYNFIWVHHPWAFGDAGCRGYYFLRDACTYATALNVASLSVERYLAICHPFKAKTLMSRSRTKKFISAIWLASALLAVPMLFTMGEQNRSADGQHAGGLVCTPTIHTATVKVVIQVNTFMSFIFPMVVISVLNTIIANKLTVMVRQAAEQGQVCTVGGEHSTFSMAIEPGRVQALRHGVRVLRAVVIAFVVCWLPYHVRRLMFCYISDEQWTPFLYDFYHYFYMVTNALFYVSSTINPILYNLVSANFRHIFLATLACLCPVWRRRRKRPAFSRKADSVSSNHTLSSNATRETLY
- Experiment summary: Agonist activity at NTSR1 (unknown origin) expressed in CHO cells assessed as potentiation of NT(8-13) peptide-induced change in intracellular Ca2+ level preincubated for 45 mins by FLIPR assay
Experimental endpoint: EC50

[
  {
    "Entry smiles": "CC(C)C[C@@H](NC(=O)Cn1ccc2cc(-c3cnc4ccccc4c3)ccc21)C(=O)O",
    "Experimental endpoint": "EC50",
    "Result": "> 100 µM"
  }
]

Take each entry in turn and give its EC50.
1. COC(=O)[C@H](CC(C)C)NC(=O)Cn1ccc2cc(-c3cccc4ccccc34)ccc21
2. COC(=O)[C@@H](CC(C)C)NC(=O)Cn1ccc2cc(-c3cccc4ccccc34)ccc21

[reply]
1: > 100 µM; 2: > 100 µM

# credit: ChEMBL document CHEMBL3351689
